# Assay Overview: Compound was tested for inhibitory activity against alpha-Fucosidase obtained from Bovine epididymis
Measured Endpoint: IC50 (nM)

>>> print(df.to_string())
                                   compound  reading
0  CC1NC(C#N)(CO)C(O)C(O)C1O (stereo not drawn)      110
1  CC1NC(CN)(CO)C(O)C(O)C1O (stereo not drawn)      160
2  CC1NC(CO)(CNC(=O)CN)C(O)C(O)C1O (stereo not drawn)      170

###

# Assay Overview: Compound was tested for inhibitory activity against alpha-Fucosidase obtained from Bovine kidney
pIC50: −log10 of the molar value.
Measured Endpoint: pIC50

>>> print(df.to_string())
                                   molecule  reading
0  CC1NC(CN)(CO)C(O)C(O)C1O (stereo not drawn)     6.69
1  CC1NC(C#N)(CO)C(O)C(O)C1O (stereo not drawn)     7.12
2  CC1NC(CO)(CNC(=O)CN)C(O)C(O)C1O (stereo not drawn)     7.30
